Assay: Terminal half life in Long Evans rat at 10 mg/kg, po administered as single dose
Format: ADME, organism-based
Set-up: dose 10 mg/kg, route oral
Conditions: in vivo, read-out: beta t1/2 (converted)
experimental readout: half-life

[[record]]
substance_smiles = "CN(C)C(=O)c1ccc(-c2ccc3c(c2)CCN(CCN2CCCC2)C3=O)cc1.Cl"
experimental_readout = "half-life"
result = "48 min"


###

Assay: Cmax in Long Evans rat at 10 mg/kg, po administered as single dose
Type: ADME, organism-based
Design: dose 10 mg/kg, route oral
Details: in vivo
experimental readout: Cmax (ng/mL)

[[record]]
substance_smiles = "CN(C)C(=O)c1ccc(-c2ccc3c(c2)CCN(CCN2CCCC2)C3=O)cc1.Cl"
unit_of_measure = "ng/mL"
measured_number = 989


Origin of the recorded values: ChEMBL document CHEMBL2029265
